These measurements were taken from the supplement of paper PMC4022240.

I'd appreciate it if you could supply peptide microarray binding signal values for the items below.
# system under test: anti-H3K9me3 antibody ab8898
# test description: peptide microarray binding signal (635 nm), min-max normalized on array (fraction of array maximum); higher = stronger binding
# measurement conditions: peptide region: Unmod H2A variant; binder concentration: 1:10,000 dilution
Give bare numbers.

[[record]]
binder = "GNAARDNKKTRII [Unmod H2A variant G N A A R D N K K T R I I]"
observed_measurement = 0.000577


Lab note: each binder below needs its peptide microarray binding signal filled in.
1. KGNYAERVGAGAP [Unmod H2A variant K G N Y A E R V G A G A P]
2. ILELAGNAARDNK [Unmod H2A variant I L E L A G N A A R D N K]
3. ILELAGNASRDNK [Unmod H2A variant I L E L A G N A S R D N K]
4. RNDEELNKLLGRV [Unmod H2A variant R N D E E L N K L L G R V]
5. LAAVLEYLTAEIL [Unmod H2A variant L A A V L E Y L T A E I L]

[0.00075, 0.0132, 0.00536, 0.00173, 0.00075]

Lab note: each binder below needs its peptide microarray binding signal filled in.
1. GAGAPVYLAAVLE [Unmod H2A variant G A G A P V Y L A A V L E]
2. QGGKARAKAKTRS [Unmod H2A variant Q G G K A R A K A K T R S]

[0.00104, 0.000404]
